Provenance of the data: paper PMC4674680

# study-system: 6His–PAK4cat (PAK4 286–591) (human, UniProt O96013 286-591)
# Sequence (O96013 286-591): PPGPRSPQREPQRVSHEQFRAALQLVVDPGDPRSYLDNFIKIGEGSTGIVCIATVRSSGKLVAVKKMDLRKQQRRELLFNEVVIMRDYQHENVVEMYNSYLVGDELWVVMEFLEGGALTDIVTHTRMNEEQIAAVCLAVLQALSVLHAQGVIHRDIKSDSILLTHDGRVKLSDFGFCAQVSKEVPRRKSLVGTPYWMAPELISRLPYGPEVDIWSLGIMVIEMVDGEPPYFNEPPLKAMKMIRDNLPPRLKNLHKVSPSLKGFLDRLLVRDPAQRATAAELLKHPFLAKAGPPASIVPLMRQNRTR
# assay-summary: kinase activity inhibition (GST-Raf13 phosphorylation)
property-label: IC50 (nM)

| binder | IC50, nM |
| --- | --- |
| VSRFAALMSCRSRQPIICNDVSYL (synthetic peptide; exact limits are only in Fig. 1d; taken as the last 24 residues because the text gives a 24mer of iBox-C (C-terminal 22 aa of Inka1)) [iBox-C24] | 300 |
| AEDWTAALLNRGRSRQPLVLGDW [iBox 23mer synthetic peptide] | 229 |
| SRQPLVLGDNCFADLVHNWMELPE (synthetic peptide; taken as the C-terminal 24 residues (paper numbering 180-203) of the 38-aa iBox; 4XBR position = Inka1 paper number minus 153; exact limits are only in Fig. 1d) [iBox24C] | 382 |
| EAEDWTAALLNRGRSRQPLVLGDNCFADLVHNWMELPE (domain or fragment, GST carrier left out. Limits 166-203 are the paper's, taken from the 4XBR fusion: Flag/SGS 1-12, iBox 13-50, EF linker 51-52, PAK4 278-591 from 53 (12+38+2+314=366). Entity position = paper number - 153 (F191=F38, L194=L41, V195=V42, P(0)=P30). The paper's Inka1 numbering may differ from UniProt Q96EL1 (paper's C-terminus is 285, entry is 287 aa).) [GST-iBox (Inka1 166–203)] | 36 |
